- SYSTEM NAME: H2 (Homo sapiens, UniProt P25021)
- PROTOCOL NOTES: NIMH PDSP radioligand competition binding, H2
- EXPERIMENTAL CONDITIONS: Ki value, bound stated
ENDPOINT LABEL: Ki

Input: Bench note: what Ki did C=CCN(CC=C)CCc1c(-c2ccccc2)[nH]c2ccccc12 show?
Output: < 10 µM

====

- SYSTEM NAME: D1 (Homo sapiens)
- PROTOCOL NOTES: NIMH PDSP radioligand competition binding, D1
- EXPERIMENTAL CONDITIONS: Ki value, bound stated
pKi: −log10 of the molar value.
ENDPOINT LABEL: pKi

Input: So what pKi did C=CCN(CC=C)CCc1c(-c2ccccc2)[nH]c2ccccc12 [2-Ph-DALT, 2-phenyl-N,N-diallyltryptamine] get with D1 (Homo sapiens)?
Output: > 5.00

====

Below, each entry is listed with its recorded pKi.
- SYSTEM NAME: norepinephrine transporter (NET) (Homo sapiens)
pKi: −log10 of the molar value.

Here are 3 compounds together with their reported answers.
C=CCN(CC=C)CCc1c(C)[nH]c2ccc(OC)cc12 [5-MeO-2-Me-DALT, 5-methoxy-2-methyl-N,N-diallyltryptamine] | < 5.00
C=CCN(CC=C)CCc1c[nH]c2c(CC)cccc12 [7-Et-DALT, 7-ethyl-N,N-diallyltryptamine] | 5.73
C=CCN(CC=C)CCc1c(C)[nH]c2ccc(F)cc12 [5-F-2-Me-DALT, 5-fluoro-2-methyl-N,N-diallyltryptamine] | < 5.00

Input: Would you kindly share the measured pKi for C=CCN(CC=C)CCc1c[nH]c2cccc(O)c12 [4-HO-DALT, 4-hydroxy-N,N-diallyltryptamine] ?
Output: < 5.00

Input: C=CCN(CC=C)CCc1c(-c2ccccc2)[nH]c2ccccc12 [2-Ph-DALT, 2-phenyl-N,N-diallyltryptamine] , same question.
Output: 6.38

Input: Then what about the compound C=CCN(CC=C)CCc1c[nH]c2cccc(OC(C)=O)c12 [4-AcO-DALT, 4-acetoxy-N,N-diallyltryptamine] ?
Output: < 5.00

====

A collection of compounds and their measured Ki
- SYSTEM NAME: UniProt:P25021
- PROTOCOL NOTES: NIMH PDSP radioligand competition binding, H2
- EXPERIMENTAL CONDITIONS: Binding Affinity (Ki, nM), [3H]tiotidine, cloned human receptor

C=CCN(CC=C)CCc1c[nH]c2cccc(OC(C)=O)c12 [4-AcO-DALT, 4-acetoxy-N,N-diallyltryptamine] | > 10000 nM

Now for another entry.
Input: // returns reported Ki for input C=CCN(CC=C)CCc1c[nH]c2c(CC)cccc12 [7-Et-DALT, 7-ethyl-N,N-diallyltryptamine]
Output: > 10000 nM

====

The entries below are paired with their reported pKi.
- SYSTEM NAME: 5-HT5A (Homo sapiens)
Please keep in mind that pKi is minus log10 of the molar concentration; only the number is needed.

Would you please look over these solved cases?
C=CCN(CC=C)CCc1c(-c2ccccc2)[nH]c2ccccc12 | 5.78
C=CCN(CC=C)CCc1c(C)[nH]c2ccc(F)cc12 | 5.72
C=CCN(CC=C)CCc1c(C)[nH]c2ccc(OC)cc12 | 5.74

Input: Report pKi for C=CCN(CC=C)CCc1c[nH]c2cccc(OC(C)=O)c12 please.
Output: 5.23

====

- SYSTEM NAME: δ-opioid receptor (DOR) (Homo sapiens, UniProt P41143)
- PROTOCOL NOTES: NIMH PDSP radioligand competition binding, DOR
- EXPERIMENTAL CONDITIONS: Binding Affinity (Ki, nM), DOR; [3H]DADLE; cloned human receptor
Documented Ki across a set of compounds

C=CCN(CC=C)CCc1c[nH]c2cccc(OC(C)=O)c12 | > 10000 nM
C=CCN(CC=C)CCc1c(C)[nH]c2ccc(OC)cc12 | > 10000 nM
C=CCN(CC=C)CCc1c(C)[nH]c2ccc(F)cc12 | > 10000 nM
C=CCN(CC=C)CCc1c[nH]c2cccc(O)c12 [4-HO-DALT, 4-hydroxy-N,N-diallyltryptamine] | > 10000 nM
C=CCN(CC=C)CCc1c[nH]c2c(CC)cccc12 | > 10000 nM

Input: Could you tell me which Ki is on file for C=CCN(CC=C)CCc1c(-c2ccccc2)[nH]c2ccccc12 ?
Output: 6790 nM

====

- SYSTEM NAME: UniProt:P21917
- Sequence (P21917 1-419): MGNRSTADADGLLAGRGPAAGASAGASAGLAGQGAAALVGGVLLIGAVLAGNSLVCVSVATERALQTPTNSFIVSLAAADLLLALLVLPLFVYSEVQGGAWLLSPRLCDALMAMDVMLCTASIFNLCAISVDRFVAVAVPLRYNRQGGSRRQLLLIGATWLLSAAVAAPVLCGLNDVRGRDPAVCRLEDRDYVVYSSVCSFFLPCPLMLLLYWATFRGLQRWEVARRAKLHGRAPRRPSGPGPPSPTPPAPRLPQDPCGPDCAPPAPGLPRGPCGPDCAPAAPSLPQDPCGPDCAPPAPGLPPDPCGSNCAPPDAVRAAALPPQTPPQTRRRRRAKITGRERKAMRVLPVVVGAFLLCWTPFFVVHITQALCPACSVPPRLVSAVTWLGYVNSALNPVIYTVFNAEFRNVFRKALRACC
- PROTOCOL NOTES: NIMH PDSP radioligand competition binding, D4
- EXPERIMENTAL CONDITIONS: Ki value, bound stated
ENDPOINT LABEL: Ki

Input: Look up Ki for this molecule: C=CCN(CC=C)CCc1c(-c2ccccc2)[nH]c2ccccc12
Output: < 10 µM

====

- SYSTEM NAME: α1B (Homo sapiens, UniProt P35368)
- Sequence (P35368 1-520): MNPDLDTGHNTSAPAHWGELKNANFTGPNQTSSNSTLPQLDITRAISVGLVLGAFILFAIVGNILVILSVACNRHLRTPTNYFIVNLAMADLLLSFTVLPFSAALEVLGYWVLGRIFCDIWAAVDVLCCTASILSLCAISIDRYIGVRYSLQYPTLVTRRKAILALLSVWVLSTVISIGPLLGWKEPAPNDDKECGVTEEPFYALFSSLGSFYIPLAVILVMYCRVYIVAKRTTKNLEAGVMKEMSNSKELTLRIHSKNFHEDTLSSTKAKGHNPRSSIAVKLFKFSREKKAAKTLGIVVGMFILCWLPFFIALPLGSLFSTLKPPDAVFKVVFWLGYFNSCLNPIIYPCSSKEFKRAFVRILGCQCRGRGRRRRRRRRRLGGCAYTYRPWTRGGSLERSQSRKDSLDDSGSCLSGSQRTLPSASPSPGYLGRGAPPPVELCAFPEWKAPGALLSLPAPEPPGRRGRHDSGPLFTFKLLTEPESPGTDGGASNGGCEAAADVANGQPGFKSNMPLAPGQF
The reader will find reported Ki values listed item by item below.

Consider the following illustrative entries.
C=CCN(CC=C)CCc1c[nH]c2cccc(OC(C)=O)c12 [4-AcO-DALT, 4-acetoxy-N,N-diallyltryptamine] | > 10 µM
C=CCN(CC=C)CCc1c[nH]c2c(CC)cccc12 [7-Et-DALT, 7-ethyl-N,N-diallyltryptamine] | > 10 µM
C=CCN(CC=C)CCc1c(C)[nH]c2ccc(F)cc12 [5-F-2-Me-DALT, 5-fluoro-2-methyl-N,N-diallyltryptamine] | > 10 µM

Input: Form: Entry = C=CCN(CC=C)CCc1c(-c2ccccc2)[nH]c2ccccc12 [2-Ph-DALT, 2-phenyl-N,N-diallyltryptamine] | System = α1B (Homo sapiens, UniProt P35368) | Ki = ____
Output: 0.904 µM

Input: Input C=CCN(CC=C)CCc1c[nH]c2cccc(O)c12 [4-HO-DALT, 4-hydroxy-N,N-diallyltryptamine]
Output: > 10 µM

Input: Next: C=CCN(CC=C)CCc1c(C)[nH]c2ccc(OC)cc12 [5-MeO-2-Me-DALT, 5-methoxy-2-methyl-N,N-diallyltryptamine]
Output: > 10 µM

====

- SYSTEM NAME: peripheral benzodiazepine receptor (PBR) (Rattus norvegicus, UniProt P16257)
- PROTOCOL NOTES: NIMH PDSP radioligand competition binding, PBR
- EXPERIMENTAL CONDITIONS: Ki value, peripheral benzodiazepine receptors; bound stated
ENDPOINT LABEL: Ki

Input: Provide value of Ki for this record tested with peripheral benzodiazepine receptor (PBR) (Rattus norvegicus, UniProt P16257): C=CCN(CC=C)CCc1c(-c2ccccc2)[nH]c2ccccc12 [2-Ph-DALT, 2-phenyl-N,N-diallyltryptamine]
Output: < 10 µM

====

Measured pKi, listed per entry for reference.
- SYSTEM NAME: 5-HT7 (Homo sapiens)
As a rule, pKi stands for the negative log10 of the concentration, concentration in M.

// below: answered molecules
C=CCN(CC=C)CCc1c(C)[nH]c2ccc(F)cc12 [5-F-2-Me-DALT, 5-fluoro-2-methyl-N,N-diallyltryptamine] | 6.31
C=CCN(CC=C)CCc1c[nH]c2cccc(OC(C)=O)c12 [4-AcO-DALT, 4-acetoxy-N,N-diallyltryptamine] | 6.14

# input for lookup
Input: So what's the measured pKi for this one? C=CCN(CC=C)CCc1c[nH]c2cccc(O)c12 [4-HO-DALT, 4-hydroxy-N,N-diallyltryptamine]
Output: 6.22
